Overview of recorded efflux ratio at 2 h, 1 µM for various molecules
EXPERIMENTAL TARGET: P-gp (MDR1) (Homo sapiens (Human))
Sequence (P08183 whole entry, species assumed): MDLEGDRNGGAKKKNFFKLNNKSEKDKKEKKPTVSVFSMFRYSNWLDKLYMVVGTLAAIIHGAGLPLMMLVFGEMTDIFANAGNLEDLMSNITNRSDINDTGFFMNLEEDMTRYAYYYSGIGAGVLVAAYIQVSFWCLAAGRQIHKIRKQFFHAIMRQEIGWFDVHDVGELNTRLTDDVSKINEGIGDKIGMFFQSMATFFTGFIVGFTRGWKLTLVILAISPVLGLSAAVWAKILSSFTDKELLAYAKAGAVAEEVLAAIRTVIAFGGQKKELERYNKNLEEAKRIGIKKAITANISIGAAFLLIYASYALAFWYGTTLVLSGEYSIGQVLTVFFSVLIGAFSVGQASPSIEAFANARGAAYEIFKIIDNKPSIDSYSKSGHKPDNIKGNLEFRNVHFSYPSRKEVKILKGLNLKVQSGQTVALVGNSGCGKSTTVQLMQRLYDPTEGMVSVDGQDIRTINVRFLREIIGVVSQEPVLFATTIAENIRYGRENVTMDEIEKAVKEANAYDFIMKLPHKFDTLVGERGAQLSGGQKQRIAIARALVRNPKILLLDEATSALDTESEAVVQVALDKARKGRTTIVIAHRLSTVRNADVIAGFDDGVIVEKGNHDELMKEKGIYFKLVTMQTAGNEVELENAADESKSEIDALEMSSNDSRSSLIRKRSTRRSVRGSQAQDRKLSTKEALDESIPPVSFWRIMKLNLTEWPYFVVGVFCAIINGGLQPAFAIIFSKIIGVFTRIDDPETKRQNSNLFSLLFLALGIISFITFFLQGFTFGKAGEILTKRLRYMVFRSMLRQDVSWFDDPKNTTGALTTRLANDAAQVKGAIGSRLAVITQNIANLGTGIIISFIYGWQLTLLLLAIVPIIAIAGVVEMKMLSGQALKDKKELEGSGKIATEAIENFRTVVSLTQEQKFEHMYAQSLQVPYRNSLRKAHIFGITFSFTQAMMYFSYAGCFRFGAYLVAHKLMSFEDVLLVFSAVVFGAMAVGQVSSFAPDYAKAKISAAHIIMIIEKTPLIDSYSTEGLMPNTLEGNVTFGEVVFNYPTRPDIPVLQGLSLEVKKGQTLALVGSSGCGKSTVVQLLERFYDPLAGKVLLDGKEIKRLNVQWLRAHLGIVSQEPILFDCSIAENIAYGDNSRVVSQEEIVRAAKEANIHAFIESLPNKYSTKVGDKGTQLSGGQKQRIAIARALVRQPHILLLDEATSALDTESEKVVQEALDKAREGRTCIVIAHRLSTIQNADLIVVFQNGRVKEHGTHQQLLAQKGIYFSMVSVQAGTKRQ
TEST DETAILS: MDR1 LLC-PK1 permeability assay: efflux ratio
SETUP CONDITIONS: pig, LLC-PK1
# print the numeric value only

>  <MOLECULE>
CCCS(=O)(=O)Nc1cc(F)cc(Oc2ccc3ncn(C)c(=O)c3c2C)c1F

>  <TEST RESULT>
1.45

$$$$
>  <MOLECULE>
Cc1c(Oc2cccc(NS(=O)(=O)CCCF)c2Cl)ccc2ncn(C)c(=O)c12

>  <TEST RESULT>
2.14

$$$$
>  <MOLECULE>
Cn1cnc2ccc(Nc3c(F)ccc(NS(=O)(=O)CCCF)c3Cl)cc2c1=O [WO 2012/118492 Example 34, reference compound]

>  <TEST RESULT>
8.89

$$$$

### Prompt Can you look up the measured efflux ratio at 2 h, 1 µM of "Cc1c(Nc2c(F)ccc(NS(=O)(=O)c3ccco3)c2Cl)ccc2ncn(C)c(=O)c12" for me?
### Response 1.86

====

EXPERIMENTAL TARGET: full-length FLAG-tagged B-Raf(V600E) (Homo sapiens (Human), UniProt P15056, V600E)
Sequence (P15056 whole entry V600E): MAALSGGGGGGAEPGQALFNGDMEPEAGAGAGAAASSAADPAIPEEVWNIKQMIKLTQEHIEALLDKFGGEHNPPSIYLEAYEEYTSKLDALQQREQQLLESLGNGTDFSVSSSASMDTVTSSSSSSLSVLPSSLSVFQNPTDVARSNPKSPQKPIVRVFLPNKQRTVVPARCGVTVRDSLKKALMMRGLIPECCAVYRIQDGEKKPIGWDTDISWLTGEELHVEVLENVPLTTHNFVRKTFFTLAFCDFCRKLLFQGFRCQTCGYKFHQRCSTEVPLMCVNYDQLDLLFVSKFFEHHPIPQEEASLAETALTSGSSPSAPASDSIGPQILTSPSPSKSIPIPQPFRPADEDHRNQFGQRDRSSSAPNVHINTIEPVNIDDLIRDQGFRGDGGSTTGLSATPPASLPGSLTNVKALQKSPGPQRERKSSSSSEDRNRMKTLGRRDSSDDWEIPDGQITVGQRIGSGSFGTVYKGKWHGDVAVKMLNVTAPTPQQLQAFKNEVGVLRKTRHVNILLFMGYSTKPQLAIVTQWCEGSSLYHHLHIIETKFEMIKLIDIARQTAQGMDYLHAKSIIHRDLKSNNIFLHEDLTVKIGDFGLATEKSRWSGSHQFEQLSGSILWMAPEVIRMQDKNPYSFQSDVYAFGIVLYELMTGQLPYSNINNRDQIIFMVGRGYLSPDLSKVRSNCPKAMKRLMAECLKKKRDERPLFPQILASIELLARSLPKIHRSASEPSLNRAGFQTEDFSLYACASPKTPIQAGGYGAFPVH
TEST DETAILS: BRAF V600E enzyme assay (TR-FRET competitive displacement of fluorescent tracer)
Type: binding
SETUP CONDITIONS: averaged IC50; 60 min at ambient temperature; 11-point dosing, top dose 10 μM
pIC50: −log10 of the molar value. Counter-ions that a name gives are not always drawn.
Cut-off 8 on pIC50, inclusive. At or above means y; below means n.

Solved entries (count: 4):
>  <MOLECULE>
CCCS(=O)(=O)Nc1cc(C)cc(Oc2ccc3ncn(C)c(=O)c3c2C)c1F [Example 75]

>  <CLASSIFICATION>
n

$$$$
>  <MOLECULE>
Cc1c(Nc2c(F)ccc(NS(=O)(=O)c3ccccc3)c2Cl)ccc2ncn(C)c(=O)c12 [Example 49]

>  <CLASSIFICATION>
y

$$$$
>  <MOLECULE>
CCCS(=O)(=O)Nc1ccc(F)c(Nc2ccc3ncn(CC)c(=O)c3c2C)c1Cl [Example 37, trifluoroacetate]

>  <CLASSIFICATION>
y

$$$$
>  <MOLECULE>
CCCS(=O)(=O)Nc1ccc(F)c(Nc2ccc3ncn(CC(F)(F)F)c(=O)c3c2C)c1Cl [Example 59]

>  <CLASSIFICATION>
y

$$$$

### Prompt Would you say CCC(C)S(=O)(=O)Nc1ccc(F)c(Nc2ccc3ncn(C)c(=O)c3c2C)c1Cl (centres unmarked) [Example 61] shows pIC50 at minimum 8?
### Response n

====

EXPERIMENTAL TARGET: BCRP (Homo sapiens (Human), UniProt Q9UNQ0)
Sequence (Q9UNQ0 whole entry, species assumed): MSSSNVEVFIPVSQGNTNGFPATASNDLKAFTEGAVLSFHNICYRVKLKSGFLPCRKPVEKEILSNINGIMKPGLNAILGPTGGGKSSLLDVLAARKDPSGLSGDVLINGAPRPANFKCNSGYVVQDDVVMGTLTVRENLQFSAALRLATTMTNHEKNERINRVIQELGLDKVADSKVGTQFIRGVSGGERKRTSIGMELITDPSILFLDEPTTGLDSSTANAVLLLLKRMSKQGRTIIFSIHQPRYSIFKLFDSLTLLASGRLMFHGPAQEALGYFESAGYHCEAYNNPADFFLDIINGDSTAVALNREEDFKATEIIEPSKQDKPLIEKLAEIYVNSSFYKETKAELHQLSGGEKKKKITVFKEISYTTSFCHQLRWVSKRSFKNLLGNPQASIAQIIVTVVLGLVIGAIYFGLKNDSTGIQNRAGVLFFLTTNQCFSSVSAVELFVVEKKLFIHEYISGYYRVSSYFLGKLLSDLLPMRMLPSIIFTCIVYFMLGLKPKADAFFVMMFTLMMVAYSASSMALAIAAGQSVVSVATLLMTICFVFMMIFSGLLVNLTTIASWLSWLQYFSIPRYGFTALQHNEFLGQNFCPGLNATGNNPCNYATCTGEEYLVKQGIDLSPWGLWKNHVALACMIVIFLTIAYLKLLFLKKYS
TEST DETAILS: BCRP MDCKII permeability assay: efflux ratio
SETUP CONDITIONS: dog
Structures can show the parent of a compound that is named as a salt.
Documented efflux ratio at 2 h, 1 µM across a set of compounds
// print number alone

Consider the reported efflux ratio at 2 h, 1 µM for these compounds:
>  <COMPOUND>
CCCS(=O)(=O)Nc1ccc(Cl)c(Nc2ccc3ncn(C)c(=O)c3c2C)c1F [Example 40]

>  <TEST RESULT>
2.87

$$$$
>  <COMPOUND>
Cc1c(Oc2c(F)cnc(NS(=O)(=O)CCCF)c2F)ccc2ncn(C)c(=O)c12 [Example 64]

>  <TEST RESULT>
31

$$$$

### Prompt Request - read-out efflux ratio at 2 h, 1 µM | tested on BCRP (Homo sapiens (Human), UniProt Q9UNQ0) | compound CCCS(=O)(=O)Nc1ccc(F)c(Nc2ccc3ncn(CC)c(=O)c3c2C)c1Cl [Example 37, trifluoroacetate]
### Response 0.87

### Prompt Find efflux ratio at 2 h, 1 µM (BCRP (Homo sapiens (Human), UniProt Q9UNQ0)) for the entry CCCS(=O)(=O)Nc1ccc(F)c(Nc2ccc3ncn(-c4ccccc4)c(=O)c3c2C)c1Cl [Example 32, trifluoroacetate]
### Response 1

### Prompt Record lookup: for BCRP (Homo sapiens (Human), UniProt Q9UNQ0), what efflux ratio at 2 h, 1 µM belongs to CCCS(=O)(=O)Nc1cccc(Oc2ccc3ncn(C)c(=O)c3c2C)c1C#N [Example 66] ?
### Response 27.9

### Prompt For BCRP (Homo sapiens (Human), UniProt Q9UNQ0), provide efflux ratio at 2 h, 1 µM of CCCS(=O)(=O)Nc1ccc(F)c(Nc2ccc3ncn(C4CCC4)c(=O)c3c2C)c1Cl [Example 33, trifluoroacetate] please.
### Response 1.33

### Prompt Could you share what efflux ratio at 2 h, 1 µM was measured for CCCS(=O)(=O)Nc1cc(F)c(F)c(Oc2ccc3ncn(C)c(=O)c3c2C)c1F [Example 72] , tested on BCRP (Homo sapiens (Human), UniProt Q9UNQ0)?
### Response 1.81

====

EXPERIMENTAL TARGET: full-length FLAG-tagged B-Raf(V600E) (Homo sapiens (Human), UniProt P15056, V600E)
TEST DETAILS: BRAF V600E enzyme assay (TR-FRET competitive displacement of fluorescent tracer)
Format: binding
SETUP CONDITIONS: averaged IC50; 60 min at ambient temperature; 11-point dosing, top dose 10 μM
Where a name gives a salt, the structure may show the parent alone.
Each entry below lists one item and its recorded IC50 value.
The answer is to be given in nM; state only the numeric part.

Known results for compounds:
>  <COMPOUND>
CCCS(=O)(=O)Nc1ccc(F)c(Nc2ccc3ncn(C(C)C)c(=O)c3c2C)c1Cl [Example 36, trifluoroacetate]

>  <IC50 [nM]>
26.4

$$$$
>  <COMPOUND>
CCCS(=O)(=O)Nc1ncc(F)c(Nc2ccc3ncn(C)c(=O)c3c2C)c1F [Example 16]

>  <IC50 [nM]>
17

$$$$
>  <COMPOUND>
CCCS(=O)(=O)Nc1ncc(F)c(Nc2ccc3ncn(C)c(=O)c3c2C)c1Cl [Example 18]

>  <IC50 [nM]>
7.85

$$$$
>  <COMPOUND>
CCCS(=O)(=O)Nc1cccc(Oc2ccc3ncn(C)c(=O)c3c2C)c1F [Example 68]

>  <IC50 [nM]>
33

$$$$

### Prompt Look up IC50: Cc1c(Nc2c(F)ccc(NS(=O)(=O)CCCF)c2F)ccc2ncn(C)c(=O)c12 [Example 2]
### Response 14.2

### Prompt Bench note: what IC50 did Cc1c(Oc2cccc(NS(=O)(=O)CCCF)c2Cl)ccc2ncn(C)c(=O)c12 [Example 79] show?
### Response 8.55

====

EXPERIMENTAL TARGET: full-length FLAG-tagged B-Raf(V600E) (Homo sapiens (Human), UniProt P15056, V600E)
TEST DETAILS: BRAF V600E enzyme assay (TR-FRET competitive displacement of fluorescent tracer)
Type: binding
SETUP CONDITIONS: averaged IC50; 60 min at ambient temperature; 11-point dosing, top dose 10 μM
Where a name gives a salt, the structure may show the parent alone.
MEASUREMENT NAME: pIC50
// scale note: pIC50 = -log10(conc_M); give the bare number

>  <MOLECULE>
CCCS(=O)(=O)Nc1cccc(Oc2ccc3ncn(C)c(=O)c3c2C)c1C#N

>  <pIC50>
8.39

$$$$
>  <MOLECULE>
CCCS(=O)(=O)Nc1cc(F)c(F)c(Nc2ccc3ncn(C)c(=O)c3c2C)c1Cl

>  <pIC50>
8.89

$$$$
>  <MOLECULE>
CCCS(=O)(=O)Nc1cc(F)cc(Nc2ccc3ncn(C)c(=O)c3c2C)c1Cl

>  <pIC50>
8.01

$$$$
>  <MOLECULE>
CCCS(=O)(=O)Nc1ccc(F)c(Nc2ccc3ncn(C)c(=O)c3c2C)c1C

>  <pIC50>
5.55

$$$$
>  <MOLECULE>
CCCS(=O)(=O)Nc1cc(F)c(F)c(Oc2ccc3ncn(C)c(=O)c3c2C)c1Cl

>  <pIC50>
8.81

$$$$

### Prompt GET /values?readout=pIC50&item= "CCCS(=O)(=O)Nc1cc(Cl)cc(Nc2ccc3ncn(C)c(=O)c3c2C)c1Cl"
### Response 8.52

### Prompt Requested read-out: pIC50. Entry: CCCS(=O)(=O)Nc1ccc(F)c(Nc2ccc3ncn(C4CCCC4)c(=O)c3c2C)c1Cl [Example 39, trifluoroacetate]
### Response 7.28

### Prompt Quick one: pIC50 for "CCCS(=O)(=O)Nc1ccc(F)c(Nc2ccc3ncn(-c4cccnc4)c(=O)c3c2C)c1Cl" ?
### Response 7.45

### Prompt Look at this molecule and give its reported pIC50. "CCCS(=O)(=O)Nc1ccc(F)c(Nc2ccc3ncn(C)c(=O)c3c2C)c1Cl"
### Response 7.71

### Prompt Endpoint output: pIC50 of CCCS(=O)(=O)Nc1ccc(F)c(Nc2ccc3ncn(C4CCC4)c(=O)c3c2C)c1Cl [Example 33, trifluoroacetate] . Value?
### Response 7.62
